Test system: THRa:RXRa (NR concentration 90 nM, RXRa partner concentration 90 nM)
Test: PBM binding z-score (relative to random genomic background probes); higher = stronger binding; sequences stand for … in GC…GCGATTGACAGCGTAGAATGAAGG
Item-by-item account of PBM binding z-score
Answer with the value's number alone.

Here is how some sequences turned out for PBM binding z-score.
1. AGTCAAAGGTCATCTAGGTAACGTAAGATATGCT    4.7
2. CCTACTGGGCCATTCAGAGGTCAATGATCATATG    2.97

Note: attention shifts to another entry.
Look up PBM binding z-score of CGTCAAAGGTCAGCAGGTCAGTGAAAGCGACGTG and report it.
3.92

---

Tested on: RXRa homodimer (NR concentration 180 nM)
Test: PBM binding z-score (relative to random genomic background probes); higher = stronger binding; sequences stand for … in GC…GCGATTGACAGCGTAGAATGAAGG
Decision: PBM binding z-score >= 6 yields 1, all other cases yield -1.

A selection of reference data follows.
1. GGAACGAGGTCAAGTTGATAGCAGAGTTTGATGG    1
2. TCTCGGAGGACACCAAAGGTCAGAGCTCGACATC    -1
3. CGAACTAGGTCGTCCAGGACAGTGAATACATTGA    -1
4. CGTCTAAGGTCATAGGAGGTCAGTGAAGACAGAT    1
5. ACTTAAGGGTCAACGAGGTTATAGCACGCGTATA    1

Dear colleague, could you confirm whether CAAACTAGGTCACAGTGGTCAAAGTCCGTGCGTA has PBM binding z-score at or above 6?
-1

Dear colleague, could you confirm whether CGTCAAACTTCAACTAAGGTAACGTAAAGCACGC has PBM binding z-score at or above 6?
-1

Dear colleague, could you confirm whether TCGAGTAGGTCACGGGGGCATTCAGGGATGAAGA has PBM binding z-score at or above 6?
1

---

Tested on: LXRb:RXRa (NR concentration 270 nM, RXRa partner concentration 90 nM)
Test: PBM binding z-score (relative to random genomic background probes); higher = stronger binding; sequences stand for … in GC…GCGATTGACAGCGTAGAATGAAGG
quantity: PBM binding z-score
Answer with the value's number alone.

Here is how some sequences turned out for PBM binding z-score.
1. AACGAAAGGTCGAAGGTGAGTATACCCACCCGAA    3.06
2. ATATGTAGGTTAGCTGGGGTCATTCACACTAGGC    5.1

Look up PBM binding z-score of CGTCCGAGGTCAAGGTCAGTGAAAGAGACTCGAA and report it.
5.26

---

Test system: PPARg DBDmut:RXRa IVT, anti-PPARg (DBD mutation: PPARg1 K132A/R137A, NR concentration 270 nM, RXRa partner concentration 90 nM)
Assay: PBM binding z-score (relative to random genomic background probes); higher = stronger binding; sequences stand for … in GC…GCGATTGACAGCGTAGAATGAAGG
Item-by-item account of PBM binding z-score
Answer with the value's number alone.

Here is how some sequences turned out for PBM binding z-score.
1) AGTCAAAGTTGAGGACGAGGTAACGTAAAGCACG    0.307
2) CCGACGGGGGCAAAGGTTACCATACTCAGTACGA    2.34
3) TATACAGGGTCAAAGGTCAGAGTACGAATGTCGA    2.47
4) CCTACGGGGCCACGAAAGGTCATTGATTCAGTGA    -0.766
5) AGAATGGGGTTATACGTAGATCAGGGAAGAAAGT    2.51
6) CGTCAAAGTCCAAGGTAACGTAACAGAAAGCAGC    0.185

Look up PBM binding z-score of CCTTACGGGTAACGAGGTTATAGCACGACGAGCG and report it.
-0.344

Look up PBM binding z-score of GCTTAGGGGTCAAAGGTTATAGCATGAATAGAAT and report it.
3.02

Look up PBM binding z-score of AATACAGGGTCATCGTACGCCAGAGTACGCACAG and report it.
3.9

Look up PBM binding z-score of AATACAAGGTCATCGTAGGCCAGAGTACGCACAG and report it.
0.979

Look up PBM binding z-score of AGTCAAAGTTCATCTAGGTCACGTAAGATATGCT and report it.
1.86

Look up PBM binding z-score of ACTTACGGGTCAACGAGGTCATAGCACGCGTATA and report it.
2.33

Look up PBM binding z-score of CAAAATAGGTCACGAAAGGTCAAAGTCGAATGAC and report it.
5.84

Look up PBM binding z-score of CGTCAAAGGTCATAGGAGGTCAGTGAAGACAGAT and report it.
1.59

Look up PBM binding z-score of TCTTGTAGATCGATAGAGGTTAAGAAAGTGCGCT and report it.
0.295

Look up PBM binding z-score of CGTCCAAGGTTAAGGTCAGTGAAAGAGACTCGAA and report it.
-0.847

Look up PBM binding z-score of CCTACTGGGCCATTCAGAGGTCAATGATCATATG and report it.
0.0847

Look up PBM binding z-score of ACTCGGAGGTCAAAGGTCAGAGCTACGCCAGTGA and report it.
2.13

Look up PBM binding z-score of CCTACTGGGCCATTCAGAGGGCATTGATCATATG and report it.
-0.276

Look up PBM binding z-score of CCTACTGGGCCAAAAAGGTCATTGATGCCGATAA and report it.
-0.582

Look up PBM binding z-score of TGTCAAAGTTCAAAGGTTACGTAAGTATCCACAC and report it.
1.58

Look up PBM binding z-score of CCTCGGAGGACAGAAGGTCAAAGCTGTCCGCTTT and report it.
-1.42

Look up PBM binding z-score of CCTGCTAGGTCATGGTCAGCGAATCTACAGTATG and report it.
-0.0271

Look up PBM binding z-score of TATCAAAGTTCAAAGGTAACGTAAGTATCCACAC and report it.
1.61

Look up PBM binding z-score of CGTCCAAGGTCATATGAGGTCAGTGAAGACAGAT and report it.
0.668

---

System: LXRb homodimer (NR concentration 270 nM)
Assay: PBM binding z-score (relative to random genomic background probes); higher = stronger binding; sequences stand for … in GC…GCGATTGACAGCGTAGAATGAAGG
quantity: PBM binding z-score

1. GCTTACAGGTCAAAGGTTATAGCATGAATAGAAT    1.4
2. ATCGAAAGGTCGACCAGGTGAGTATACACCGTTT    0.349

Note: attention shifts to another entry.
Look up PBM binding z-score of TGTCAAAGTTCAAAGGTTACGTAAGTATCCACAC and report it.
2.03

---

Item-by-item account of PBM binding z-score
Tested on: PPARg:RXRa 30nM:10nM, anti-RXR (NR concentration 30 nM, RXRa partner concentration 10 nM)
Assay: PBM binding z-score (relative to random genomic background probes); higher = stronger binding; sequences stand for … in GC…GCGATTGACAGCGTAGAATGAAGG
Answer with the value's number alone.

Here is how some sequences turned out for PBM binding z-score.
1) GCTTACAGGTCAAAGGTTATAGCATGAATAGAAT    8.9
2) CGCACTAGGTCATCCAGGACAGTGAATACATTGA    3.65
3) CAAACGAGGTCACGAAAGGTCAAAGTCGAATGAC    6.72

Look up PBM binding z-score of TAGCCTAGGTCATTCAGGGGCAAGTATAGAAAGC and report it.
0.449

Look up PBM binding z-score of TAGCCTAAGTCATGCGGGCCAGTATAGTGTCGGC and report it.
-0.673

Look up PBM binding z-score of CGTCCAAGGTCTAGGTCAGTGAAAGAGACTCGAA and report it.
-0.506

Look up PBM binding z-score of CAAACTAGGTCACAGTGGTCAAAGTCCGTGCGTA and report it.
5.52

---

Item-by-item account of PBM binding z-score
Tested on: THRa:RXRa (NR concentration 90 nM, RXRa partner concentration 90 nM)
Assay: PBM binding z-score (relative to random genomic background probes); higher = stronger binding; sequences stand for … in GC…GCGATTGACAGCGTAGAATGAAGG
Answer with the value's number alone.

1) GCTTAAGGGTCAAAGGTTATAGCATGAATAGAAT    4.14
2) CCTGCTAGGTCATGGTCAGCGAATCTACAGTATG    2.9
3) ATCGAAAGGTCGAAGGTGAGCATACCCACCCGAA    2.36

Look up PBM binding z-score of CTCGAAAGGTCGTGCTCAGATGAGTATACCAAAC and report it.
2.22

Look up PBM binding z-score of CAAACTAGGTCACCGAAAGGTCAAAGTCCGCATG and report it.
4.72
